# SYSTEM_TESTED: Cdc25B (Homo sapiens, UniProt P30305)
# Sequence (P30305 whole entry, species assumed): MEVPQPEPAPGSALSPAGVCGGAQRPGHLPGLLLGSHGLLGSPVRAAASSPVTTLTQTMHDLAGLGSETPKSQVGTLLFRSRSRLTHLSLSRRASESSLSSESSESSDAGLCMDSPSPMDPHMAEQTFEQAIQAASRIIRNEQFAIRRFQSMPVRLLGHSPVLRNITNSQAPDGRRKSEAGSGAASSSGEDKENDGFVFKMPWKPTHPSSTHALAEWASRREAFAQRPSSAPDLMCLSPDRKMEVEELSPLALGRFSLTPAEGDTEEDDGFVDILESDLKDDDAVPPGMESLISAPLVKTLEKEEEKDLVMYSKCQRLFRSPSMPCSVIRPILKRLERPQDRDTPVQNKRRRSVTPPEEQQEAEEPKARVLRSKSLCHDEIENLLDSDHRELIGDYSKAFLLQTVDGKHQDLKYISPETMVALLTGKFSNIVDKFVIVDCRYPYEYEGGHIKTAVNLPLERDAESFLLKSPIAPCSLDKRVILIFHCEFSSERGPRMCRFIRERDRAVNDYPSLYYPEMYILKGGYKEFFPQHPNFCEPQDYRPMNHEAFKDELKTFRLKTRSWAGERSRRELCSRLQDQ
# ASSAY_PROCEDURE: Cdc25B phosphatase inhibition (50 μM screen, 3 pt. and 8 pt. IC-50)
# Format: biochemical
# RUN_PARAMETERS: read-out: Percent Inhibition at 50 uM compound, Cdc25 B
# Protocol: Using procedures known to those skilled in the art, the compounds listed in Table 3 were screened against Cdc25A, Cdc25B, and Cdc25C at 50 μM. […] To analyze these effects further, the compounds were then screened against Cdc25B in a 3 pt. IC-50, using 1, 7 and 50 μM. Several of the compounds were also screened with an 8 pt. IC-50 process, using 0.1–10 μM, allowing determination of Hill slopes.
OBSERVABLE: inhibition at 50 µM (%)

Below: 8 compounds and their reported inhibition at 50 µM.
{"MOLECULAR_STRING": "O=C1C=C(O)C(=O)C(c2c[nH]c3ccc(F)cc23)=C1O", "OBSERVABLE": "inhibition at 50 µM", "VALUE_OBSERVED": 32}
{"MOLECULAR_STRING": "CC(C)=CCCC(C)=CCCC(C)=CCc1cccc2c(C3=C(O)C(=O)C=C(O)C3=O)c[nH]c12", "OBSERVABLE": "inhibition at 50 µM", "VALUE_OBSERVED": 89}
{"MOLECULAR_STRING": "CC1(c2[nH]c3ccccc3c2C2=C(O)C(=O)C=C(O)C2=O)CCCCC1", "OBSERVABLE": "inhibition at 50 µM", "VALUE_OBSERVED": 11}
{"MOLECULAR_STRING": "O=C1C=C(O)C(=O)C(c2c[nH]c3c(Cl)cccc23)=C1O", "OBSERVABLE": "inhibition at 50 µM", "VALUE_OBSERVED": 23}
{"MOLECULAR_STRING": "O=C1C=C(O)C(=O)C(c2c[nH]c3cc(F)ccc23)=C1O", "OBSERVABLE": "inhibition at 50 µM", "VALUE_OBSERVED": 48}
{"MOLECULAR_STRING": "CCCc1cccc2c(C3=C(O)C(=O)C=C(O)C3=O)c[nH]c12", "OBSERVABLE": "inhibition at 50 µM", "VALUE_OBSERVED": 23}
{"MOLECULAR_STRING": "CC(C)c1[nH]c2ccccc2c1C1=C(O)C(=O)C=C(O)C1=O", "OBSERVABLE": "inhibition at 50 µM", "VALUE_OBSERVED": 13}
{"MOLECULAR_STRING": "Cc1ccc2c(C3=C(O)C(=O)C=C(O)C3=O)c(C)[nH]c2c1", "OBSERVABLE": "inhibition at 50 µM", "VALUE_OBSERVED": 16}

a: O=C1C=C(O)C(=O)C(c2c[nH]c3cccc(Cl)c23)=C1O
b: O=C1C=C(O)C(=O)C(c2c[nH]c3c(OCc4ccccc4)cccc23)=C1O
[Q] Problem: Given the entries a and b , determine which has the lower reported inhibition at 50 µM. Pick one and reply with its label.
[A] a
(a: 21%, b: 97%)

* * *

# SYSTEM_TESTED: Cdc25B (Homo sapiens)
# ASSAY_PROCEDURE: Cdc25B phosphatase inhibition (50 μM screen, 3 pt. and 8 pt. IC-50)
# Type: biochemical
# RUN_PARAMETERS: Cdc25B; 3 pt. IC-50 using 1, 7 and 50 μM; read-out: IC50 (3 pt)
# Procedure: Using procedures known to those skilled in the art, the compounds listed in Table 3 were screened against Cdc25A, Cdc25B, and Cdc25C at 50 μM. […] To analyze these effects further, the compounds were then screened against Cdc25B in a 3 pt. IC-50, using 1, 7 and 50 μM. Several of the compounds were also screened with an 8 pt. IC-50 process, using 0.1–10 μM, allowing determination of Hill slopes.
pIC50: −log10 of the molar value.
OBSERVABLE: pIC50

Below: 2 molecules and their reported pIC50.
{"MOLECULE": "CC1(c2[nH]c3ccccc3c2C2=C(O)C(=O)C=C(O)C2=O)CCCCC1 [3A]", "OBSERVABLE": "pIC50", "VALUE_OBSERVED": 4.08}
{"MOLECULE": "O=C1C=C(O)C(=O)C(c2c[nH]c3cccc(OCc4ccccc4)c23)=C1O [3H]", "OBSERVABLE": "pIC50", "VALUE_OBSERVED": 5.34}

P: COc1ccc2[nH]c(C)c(C3=C(O)C(=O)C(c4c(C(C)(C)C)[nH]c5ccccc45)=C(O)C3=O)c2c1 [10H]
Q: O=C1C=C(O)C(=O)C(c2c[nH]c3ccc(Cl)cc23)=C1O [4C]
[Q] Recorded pIC50 values differ for P and Q ; which one is higher? Pick one and reply with its label.
[A] Q
(Q: 5.64, P: 4.94)
